System: Fibroblast
Test: Multiplex assay against human fibroblast
Type: toxicity, cell-based
Settings: 12 h, 10 µM, compound concentration 10 uM, replicate 1
Below, each entry is listed with its recorded Population Pyknosed Nuclei (%).
assay endpoint: Population Pyknosed Nuclei (%)

1. NCCc1cn(S(=O)(=O)c2c(Cl)nc3sccn23)c2ccccc12.O=C(O)C(=O)O    22
2. Cc1onc(-c2ccccc2Cl)c1C(=O)N(C)c1ccc(Cl)cc1    13
3. CN1CCN(c2cc(-c3ccccc3)nc(N)n2)CC1    15
4. CC(=O)Nc1cccc2c1c(Sc1ccc(Cl)cc1)c(C)n2CC(=O)O    19
5. N#Cc1c(Oc2cccc(OS(=O)(=O)CCCC(F)(F)F)c2)cccc1C(F)(F)F    26

* * *

Test system: U2OS
Assay: Multiplex assay against U2OS
Assay type: toxicity, cell-based
Settings: human, 48 h, 1 µM, compound concentration 1 uM, replicate 2
Below, each entry is listed with its recorded Population Fragmented Nuclei (%).
assay endpoint: Population Fragmented Nuclei (%)

1) O=C1[C@H](Cc2ccc(O)cc2)N2C(=O)CCN(C(=O)NCc3ccccc3)[C@H]2CN1Cc1cccc2ccccc12    16
2) Cc1sc2c(c1C)C(c1ccc(Cl)cc1)=N[C@@H](CC(=O)NCCCCCCCCNC(=O)COc1cccc3c1C(=O)N(C1CCC(=O)NC1=O)C3=O)c1nnc(C)n1-2 (some centres undefined)    12
3) Cc1cnc(-c2cc(N3CCN(C(=O)CCS(C)(=O)=O)CC3)ncc2Cl)c(C)c1    15
4) N#Cc1c(Oc2cccc(OS(=O)(=O)CCCC(F)(F)F)c2)cccc1C(F)(F)F    16

* * *

Below, each entry is listed with its recorded Total Cell Count.
Test system: U2OS
Assay: Multiplex assay against U2OS
Format: toxicity, cell-based
Conditions: human, 12 h, 10 µM, compound concentration 10 uM, replicate 1
assay endpoint: Total Cell Count

1) COC[C@@H](c1ccc(C(F)(F)F)cc1)N1CCN(C2(C)CCN(C(=O)c3c(C)ncnc3C)CC2)C[C@@H]1C.O=C(O)/C=C\C(=O)O [VICRIVIROC MALEATE]    270
2) COc1ccccc1N1CCN(C[C@@H](C(=O)NC(C)(C)C)c2ccccc2)CC1.Cl.Cl    226
3) Cc1cccc(NC(=O)CN2CCC(c3ccccn3)CC2)c1.Cl.Cl    216
4) CC(C)COc1ccc(CNC(=O)N(Cc2ccc(F)cc2)C2CCN(C)CC2)cc1    202
5) CCCOc1ccc2[nH]cc(C3=CCNCC3)c2n1.Cl    275
6) N#Cc1cc(F)cc(-c2nc(-c3ccc(F)cn3)no2)c1    196
7) NCCc1cn(S(=O)(=O)c2c(Cl)nc3sccn23)c2ccccc12.O=C(O)C(=O)O    221
8) CC(C)c1noc(N2CCC(COc3ccc(-c4ccc(S(C)(=O)=O)cc4)nc3)CC2)n1    262
9) Cc1sc2c(c1C)C(c1ccc(Cl)cc1)=N[C@@H](CC(=O)NCCCCCCCCNC(=O)COc1cccc3c1C(=O)N(C1CCC(=O)NC1=O)C3=O)c1nnc(C)n1-2 (stereo not given in full)    233
10) CCCCCC(O)/C=C/[C@H]1C(=O)CC(O)C1C/C=C\CCCC(=O)O (stereo not given in full)    190

* * *

Test system: U2OS
Assay: Multiplex assay against U2OS
Type: toxicity, cell-based
Conditions: human, 12 h, 1 µM, compound concentration 1 uM, replicate 2
Below, each entry is listed with its recorded Population Pyknosed Nuclei (%).
assay endpoint: Population Pyknosed Nuclei (%)

1) N#Cc1cc(F)cc(-c2nc(-c3ccc(F)cn3)no2)c1    4
2) CC[C@@H](C)Nc1nc(C)nc2c(-c3ccc(OC)nc3C)c(C)nn12    5
3) Cc1sc2c(c1C)C(c1ccc(Cl)cc1)=N[C@@H](CC(=O)NCCCCCCCCNC(=O)COc1cccc3c1C(=O)N(C1CCC(=O)NC1=O)C3=O)c1nnc(C)n1-2 (some centres undefined)    5
4) CCc1cc2cc(NS(=O)(=O)c3ccc(C#N)cc3)ccc2n(CC)c1=O    3
